Molecular target: T1, interleukin-2 alpha receptor (SYMANSIS, #4102H) to which a human immunoglobulin Fc region was linked (UniProt P01589 22-213, limits assumed)
T1 construct: Bought receptor-Fc, captured on anti-human immunoglobulin antibody; also called IL-2Rα; CD25; not shown: human immunoglobulin Fc region
T1 sequence (looked up): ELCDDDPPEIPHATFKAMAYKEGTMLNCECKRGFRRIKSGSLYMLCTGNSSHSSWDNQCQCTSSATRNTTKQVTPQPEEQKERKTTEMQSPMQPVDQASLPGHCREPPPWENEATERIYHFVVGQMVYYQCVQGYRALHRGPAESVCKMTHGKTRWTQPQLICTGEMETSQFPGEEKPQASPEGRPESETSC
Test: SPR (Biacore T200); receptor-Fc captured on anti-human Ig CM5 chip, analog flowed; relative to analog 1 = 100%
reported endpoint: Relative binding affinity (%)

Sample records with Relative binding affinity (%):
Enquiry: Request the reported Relative binding affinity (%) associated with interleukin-2 analog 104 (ligand) PTSSSTKKTQLQLEHLRLDLEMILNGINNYKNPKLTRMLTFKFYMPKKATELKHLQCLEDELKPLEEVLNLAQSKNFHFEPRDVVSNINVFVLELKGSETTFMCEYADETATIVEFLNRWITFSQSIISTLT
Return: 122

Enquiry: Now try interleukin-2 analog 90 (ligand) PTSSSTKKTQLQLEHLLLDLQMILNGINNYKNPKLTRMLTWKFYMPKKATELKHLQCLEEELKPLEEVLNLAQSKNFHFEPRDVVSNINVFVLELKGSETTFMCEYADETATIVEFLNRWITFSQSIISTLT .
Return: 98.4

(P) interleukin-2 analog 100 (ligand) PTSSSTKKTQLQLEHLLLDLQMILNGINNYKNPKLTRMLTFKFYMPKKATELKHLQCLEEELKPLEEVLNLAQSKNFHFEPRDYVSNINVFVLELKGSETTFMCEYADETATIVEFLNRWITFSQSIISTLT
(Q) interleukin-2 analog 97 (ligand) PTSSSTKKTQLQLEHLLLDLQMILNGINNYKNPKLTAMLTFKFYMPKKATELKHLQCLEEELKPLEEVLNLAQSKNFHFDPRDLISNINVFVLELKGSETTFMCEYADETATIVEFLNRWITFSQSIISTLT
Enquiry: Which of these two has the smaller recorded Relative binding affinity (%): P or Q ? Use the label to indicate which entry you chose.
Return: Q
(Q: 18.8%, P: 29.1%)
